MIC values for the molecules below.
System: Staphylococcus aureus S13E
Format: cell-based
Procedure: The MIC's were determined using a standard broth micro-dilution assay.
QUANTITY_NAME: MIC (µg/mL)

1. CCc1ccc(-c2ccc(CNC3(C)CC(OC4C(Oc5c6cc7cc5Oc5ccc(cc5Cl)C(OC5CC(C)(N)C(O)C(C)O5)C5NC(=O)C(NC(=O)C7NC(=O)C(CC(N)=O)NC(=O)C(NC(=O)C(CC(C)C)NC)C(O)c7ccc(c(Cl)c7)O6)c6ccc(O)c(c6)-c6c(O)cc(O)cc6C(C(=O)O)NC5=O)OC(CO)C(O)C4O)OC(C)C3O)cc2)cc1 (stereo not drawn) : 1
2. CNC(CC(C)C)C(=O)NC1C(=O)NC(CC(N)=O)C(=O)NC2C(=O)NC3C(=O)NC(C(=O)NC(C(=O)O)c4cc(O)cc(O)c4-c4cc3ccc4O)C(OC3CC(C)(N)C(O)C(C)O3)c3ccc(c(Cl)c3)Oc3cc2cc(c3OC2OC(CO)C(O)C(O)C2OC2CC(C)(NCc3ccc(Oc4ccccc4Cl)c([N+](=O)[O-])c3)C(O)C(C)O2)Oc2ccc(cc2Cl)C1O (stereo not drawn) : 1
3. CNC(CC(C)C)C(=O)NC1C(=O)NC(CC(N)=O)C(=O)NC2C(=O)NC3C(=O)NC(C(=O)NC(C(=O)O)c4cc(O)cc(O)c4-c4cc3ccc4O)C(OC3CC(C)(N)C(O)C(C)O3)c3ccc(c(Cl)c3)Oc3cc2cc(c3OC2OC(CO)C(O)C(O)C2OC2CC(C)(NCCCCCCCCBr)C(O)C(C)O2)Oc2ccc(cc2Cl)C1O (stereo not drawn) : 0.125
4. CNC(CC(C)C)C(=O)NC1C(=O)NC(CC(N)=O)C(=O)NC2C(=O)NC3C(=O)NC(C(=O)NC(C(=O)O)c4cc(O)cc(O)c4-c4cc3ccc4O)C(OC3CC(C)(N)C(O)C(C)O3)c3ccc(c(Cl)c3)Oc3cc2cc(c3OC2OC(CO)C(O)C(O)C2OC2CC(C)(NCc3ccc(OCCOC(C)(C)C)cc3)C(O)C(C)O2)Oc2ccc(cc2Cl)C1O (stereo not drawn) : 0.25

----------
System: Haemophilus influenzae RD
PROCEDURE_SUMMARY: broth micro-dilution MIC
Assay type: cell-based
PROTOCOL_CONDITIONS: Haemophilus influenzae RD
MIC values for the compounds below.
QUANTITY_NAME: MIC (mg/L)

1. CNC(CC(C)C)C(=O)NC1C(=O)NC(CC(N)=O)C(=O)NC2C(=O)NC3C(=O)NC(C(=O)NC(C(=O)O)c4cc(O)cc(O)c4-c4cc3ccc4O)C(O)c3ccc(c(Cl)c3)Oc3cc2cc(c3OC2OC(CO)C(O)C(O)C2OC2CC(C)(NCc3ccc(-c4ccccc4)cc3)C(O)C(C)O2)Oc2ccc(cc2Cl)C1O (stereo not drawn) : 32
2. C=CCCCOc1ccc(CNC2(C)CC(OC3C(Oc4c5cc6cc4Oc4ccc(cc4Cl)C(OC4CC(C)(N)C(O)C(C)O4)C4NC(=O)C(NC(=O)C6NC(=O)C(CC(N)=O)NC(=O)C(NC(=O)C(CC(C)C)NC)C(O)c6ccc(c(Cl)c6)O5)c5ccc(O)c(c5)-c5c(O)cc(O)cc5C(C(=O)O)NC4=O)OC(CO)C(O)C3O)OC(C)C2O)cc1 (stereo not drawn) : 32

----------
Test system: Staphylococcus aureus SA1199B
Type: cell-based
Procedure: The MIC's were determined using a standard broth micro-dilution assay.
QUANTITY_NAME: MIC (µg/mL)

1) CC(C)CC(C(=O)NC1C(=O)NC(CC(N)=O)C(=O)NC2C(=O)NC3C(=O)NC(C(=O)NC(C(=O)O)c4cc(O)cc(O)c4-c4cc3ccc4O)C(OC3CC(C)(N)C(O)C(C)O3)c3ccc(c(Cl)c3)Oc3cc2cc(c3OC2OC(CO)C(O)C(O)C2OC2CC(C)(NCc3ccccn3)C(O)C(C)O2)Oc2ccc(cc2Cl)C1O)N(C)Cc1ccccn1 (centres unmarked) : 32

----------
System: Staphylococcus aureus S13E
Type: cell-based
MIC values for the molecules below.
QUANTITY_NAME: MIC (µg/mL)

1. CNC(CC(C)C)C(=O)NC1C(=O)NC(CC(N)=O)C(=O)NC2C(=O)NC3C(=O)NC(C(=O)NC(C(=O)O)c4cc(O)cc(O)c4-c4cc3ccc4O)C(OC3CC(C)(N)C(O)C(C)O3)c3ccc(c(Cl)c3)Oc3cc2cc(c3OC2OC(CO)C(O)C(O)C2OC2CC(C)(NCc3ccc(OCCC4CCCCC4)cc3)C(O)C(C)O2)Oc2ccc(cc2Cl)C1O (stereo not drawn) [Compound 127] : 2
2. CNC(CC(C)C)C(=O)NC1C(=O)NC(CC(N)=O)C(=O)NC2C(=O)NC3C(=O)NC(C(=O)NC(C(=O)O)c4cc(O)cc(O)c4-c4cc3ccc4O)C(OC3CC(C)(N)C(O)C(C)O3)c3ccc(c(Cl)c3)Oc3cc2cc(c3OC2OC(CO)C(O)C(O)C2OC2CC(C)(NCC3CCCCC3)C(O)C(C)O2)Oc2ccc(cc2Cl)C1O (stereo not drawn) [Compound 161] : 0.125

----------
MIC values for the compounds below.
System: Staphylococcus aureus SA1199B
Type: cell-based
QUANTITY_NAME: MIC (µg/mL)

1. CNC(CC(C)C)C(=O)NC1C(=O)NC(CC(N)=O)C(=O)NC2C(=O)NC3C(=O)NC(C(=O)NC(C(=O)O)c4cc(O)cc(O)c4-c4cc3ccc4O)C(OC3CC(C)(N)C(O)C(C)O3)c3ccc(c(Cl)c3)Oc3cc2cc(c3OC2OC(CO)C(O)C(O)C2OC2CC(C)(NCc3ccc(Cc4ccccc4)c(OC)c3)C(O)C(C)O2)Oc2ccc(cc2Cl)C1O (stereo not drawn) [Compound 104] : 0.125
2. CNC(CC(C)C)C(=O)NC1C(=O)NC(CC(N)=O)C(=O)NC2C(=O)NC3C(=O)NC(C(=O)NC(C(=O)O)c4cc(O)cc(O)c4-c4cc3ccc4O)C(OC3CC(C)(N)C(O)C(C)O3)c3ccc(c(Cl)c3)Oc3cc2cc(c3OC2OC(CO)C(O)C(O)C2OC2CC(C)(NCc3cccc(Sc4ccc(C(C)(C)C)cc4)c3)C(O)C(C)O2)Oc2ccc(cc2Cl)C1O (stereo not drawn) [Compound 228] : 4
3. CNC(CC(C)C)C(=O)NC1C(=O)NC(CC(N)=O)C(=O)NC2C(=O)NC3C(=O)NC(C(=O)NC(C(=O)O)c4cc(O)cc(O)c4-c4cc3ccc4O)C(OC3CC(C)(N)C(O)C(C)O3)c3ccc(c(Cl)c3)Oc3cc2cc(c3OC2OC(CO)C(O)C(O)C2OC2CC(C)(NCc3ccc(OCCCCCCc4ccccc4)cc3)C(O)C(C)O2)Oc2ccc(cc2Cl)C1O (stereo not drawn) [Compound 219] : 8
4. CNC(CC(C)C)C(=O)NC1C(=O)NC(CC(N)=O)C(=O)NC2C(=O)NC3C(=O)NC(C(=O)NC(C(=O)O)c4cc(O)cc(O)c4-c4cc3ccc4O)C(OC3CC(C)(N)C(O)C(C)O3)c3ccc(c(Cl)c3)Oc3cc2cc(c3OC2OC(CO)C(O)C(O)C2OC2CC(C)(NCc3ccc4cc(C)ccc4c3)C(O)C(C)O2)Oc2ccc(cc2Cl)C1O (stereo not drawn) [Compound 189] : 1
5. COc1ccc2ccccc2c1CNC1(C)CC(OC2C(Oc3c4cc5cc3Oc3ccc(cc3Cl)C(OC3CC(C)(N)C(O)C(C)O3)C3NC(=O)C(NC(=O)C5NC(=O)C(CC(N)=O)NC(=O)C(NC(=O)C(CC(C)C)N(C)Cc5c(OC)ccc6ccccc56)C(O)c5ccc(c(Cl)c5)O4)c4ccc(O)c(c4)-c4c(O)cc(O)cc4C(C(=O)O)NC3=O)OC(CO)C(O)C2O)OC(C)C1O (stereo not drawn) [Compound 282] : 16
6. CNC(CC(C)C)C(=O)NC1C(=O)NC(CC(N)=O)C(=O)NC2C(=O)NC3C(=O)NC(C(=O)NC(C(=O)O)c4cc(O)cc(O)c4-c4cc3ccc4O)C(OC3CC(C)(NCc4ccc(SC)cc4)C(O)C(C)O3)c3ccc(c(Cl)c3)Oc3cc2cc(c3OC2OC(CO)C(O)C(O)C2OC2CC(C)(NCc3ccc(SC)cc3)C(O)C(C)O2)Oc2ccc(cc2Cl)C1O (stereo not drawn) [Compound 278] : 0.5
7. CCCCCCCCCCC#CCNC1(C)CC(OC2C(Oc3c4cc5cc3Oc3ccc(cc3Cl)C(OC3CC(C)(N)C(O)C(C)O3)C3NC(=O)C(NC(=O)C5NC(=O)C(CC(N)=O)NC(=O)C(NC(=O)C(CC(C)C)NC)C(O)c5ccc(c(Cl)c5)O4)c4ccc(O)c(c4)-c4c(O)cc(O)cc4C(C(=O)O)NC3=O)OC(CO)C(O)C2O)OC(C)C1O (stereo not drawn) [Compound 191] : 2
8. CNC(CC(C)C)C(=O)NC1C(=O)NC(CC(N)=O)C(=O)NC2C(=O)NC3C(=O)NC(C(=O)NC(C(=O)O)c4cc(O)cc(O)c4-c4cc3ccc4O)C(OC3CC(C)(N)C(O)C(C)O3)c3ccc(c(Cl)c3)Oc3cc2cc(c3OC2OC(CO)C(O)C(O)C2OC2CC(C)(NCCCCCCCCBr)C(O)C(C)O2)Oc2ccc(cc2Cl)C1O (stereo not drawn) [Compound 198] : 0.5
9. CNC(CC(C)C)C(=O)NC1C(=O)NC(CC(N)=O)C(=O)NC2C(=O)NC3C(=O)NC(C(=O)NC(C(=O)O)c4cc(O)cc(O)c4-c4cc3ccc4O)C(OC3CC(C)(N)C(O)C(C)O3)c3ccc(c(Cl)c3)Oc3cc2cc(c3OC2OC(CO)C(O)C(O)C2OC2CC(C)(NCc3ccncc3)C(O)C(C)O2)Oc2ccc(cc2Cl)C1O (stereo not drawn) [Compound 26] : 0.5
